Source listed as patent US20110086770A1.

Reported values of Ratio IC50 to 056-53.H4E IC50 for individual entries
- targetOrTestSystem: T1, recombinant human IL-23R/Fc chimera (R&D Systems) (human, UniProt Q5VWK5 24-353)
- T1 construct: bought; also called human IL-23R/Fc fusion protein; rhIL23RFc
- T1 sequence (looked up): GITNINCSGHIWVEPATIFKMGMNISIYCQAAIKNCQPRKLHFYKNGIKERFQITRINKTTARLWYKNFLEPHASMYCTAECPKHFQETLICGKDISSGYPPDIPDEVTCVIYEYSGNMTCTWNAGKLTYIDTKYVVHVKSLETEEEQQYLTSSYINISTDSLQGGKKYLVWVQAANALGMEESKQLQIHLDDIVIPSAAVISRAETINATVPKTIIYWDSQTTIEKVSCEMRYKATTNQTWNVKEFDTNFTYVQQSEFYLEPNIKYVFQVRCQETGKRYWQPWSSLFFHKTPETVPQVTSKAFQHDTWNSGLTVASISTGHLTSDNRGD
- testSummary: competition ELISA against IL-23
Note: unit ratio is implicit; provide only the numeric part.

binder="105-08-2H2 ATRIMER (designed binder) EPPTQKPKKIVNAKKDVVNTKMFEELKSRLDTLAQEVALLKEQQALQTVCLKGTKVHMKCFLAFTQTKTFHEASEDCISRGGTLSTPQTGSENDALYEYLRQSVGNEAEIWLGLNGSPTTDTWVDMTGARIAYKNWETEITAQPDGGWGYFGENCAVLSGAANGKWFDKRCRDQLPYICQFGIV" outcomemeasure="Ratio IC50 to 056-53.H4E IC50" measvalue=4
binder="101-80-5H3 ATRIMER (designed binder, ATRIMER is a homotrimer; one protomer is given., one residue deleted from Loop 4 (-GVFG); the GlyGly to AlaAla change; not shown: C-terminal purification tag: Myc/His6 (pANA4) or HA-StrepII (pANA10)) EPPTQKPKKIVNAKKDVVNTKMFEELKSRLDTLAQEVALLKEQQALQTVCLKGTKVHMKCFLAFTQTKTFHEASEDCISRGGTLSTPQTGSENDALYEYLRQSVGNEAEIWLGLNGSALTNTWVDMTGARIAYKNWEPPAPYHPMAAGVFGENCAVLSGAANGKWFDKRCRDQLPYICQFGIV" outcomemeasure="Ratio IC50 to 056-53.H4E IC50" measvalue=11.3

## Input Please report the recorded Ratio IC50 to 056-53.H4E IC50 for 101-51-1A3 ATRIMER (designed binder, ATRIMER is a homotrimer; one protomer is given., not shown: C-terminal purification tag: Myc/His6 (pANA4) or HA-StrepII (pANA10)) EPPTQKPKKIVNAKKDVVNTKMFEELKSRLDTLAQEVALLKEQQALQTVCLKGTKVHMKCFLAFTQTKTFHEASEDCISRGGTLSTPQTGSENDALYEYLRQSVGNEAEIWLGLNGSALTNTWVDMTGARIAYKNWEHQPVYQPGGGWGVFGENCAVLSGAANGKWFDKRCRDQLPYICQFGIV .
## Output 1.6
